Would you kindly list Ki for each of these compounds?
- tgt: UniProt:P35367
- Sequence (P35367 whole entry): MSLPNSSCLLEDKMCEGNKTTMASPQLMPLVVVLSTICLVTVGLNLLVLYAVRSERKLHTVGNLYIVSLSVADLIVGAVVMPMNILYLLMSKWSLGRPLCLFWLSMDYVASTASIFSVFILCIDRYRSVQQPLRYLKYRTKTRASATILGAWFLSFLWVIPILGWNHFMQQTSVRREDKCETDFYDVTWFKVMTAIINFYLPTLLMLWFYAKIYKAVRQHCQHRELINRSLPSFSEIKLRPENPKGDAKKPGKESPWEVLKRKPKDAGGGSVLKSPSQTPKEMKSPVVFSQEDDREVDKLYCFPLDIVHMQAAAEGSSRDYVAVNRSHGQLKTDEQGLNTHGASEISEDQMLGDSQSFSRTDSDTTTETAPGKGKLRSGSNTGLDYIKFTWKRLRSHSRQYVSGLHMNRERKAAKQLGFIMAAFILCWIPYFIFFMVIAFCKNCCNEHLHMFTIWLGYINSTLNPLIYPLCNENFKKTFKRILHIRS
Give bare numbers, in nM.

>>> quantitativereadout("CCOC(=O)N1CCC(=C2c3ccc(Cl)cc3CCc3cc(OC)cnc32)CC1")
1950
>>> quantitativereadout("C/C=C/C(=O)N1CCC(=C2c3ccc(Cl)cc3CCc3cccnc32)CC1")
153
>>> quantitativereadout("CCCCC(=O)N1CCC(=C2c3ccc(Cl)cc3CCc3cccnc32)CC1")
147
>>> quantitativereadout("CC(C)CC(=O)N1CCC(=C2c3ccc(Cl)cc3CCc3cccnc32)CC1")
289

// batch mode: one Ki value per listed entry
1. CC(C)COC(=O)N1CCC(=C2c3ccc(Cl)cc3CCc3cccnc32)CC1
2. CC(C)C[C@@H](N)C(=O)N1CCC(=C2c3ccc(Cl)cc3CCc3cccnc32)CC1

Response:
1270
4650

====

- tgt: Sodium-dependent neutral amino acid transporter B(0)AT2 (Homo sapiens, UniProt Q9H2J7)
- Sequence (Q9H2J7 whole entry): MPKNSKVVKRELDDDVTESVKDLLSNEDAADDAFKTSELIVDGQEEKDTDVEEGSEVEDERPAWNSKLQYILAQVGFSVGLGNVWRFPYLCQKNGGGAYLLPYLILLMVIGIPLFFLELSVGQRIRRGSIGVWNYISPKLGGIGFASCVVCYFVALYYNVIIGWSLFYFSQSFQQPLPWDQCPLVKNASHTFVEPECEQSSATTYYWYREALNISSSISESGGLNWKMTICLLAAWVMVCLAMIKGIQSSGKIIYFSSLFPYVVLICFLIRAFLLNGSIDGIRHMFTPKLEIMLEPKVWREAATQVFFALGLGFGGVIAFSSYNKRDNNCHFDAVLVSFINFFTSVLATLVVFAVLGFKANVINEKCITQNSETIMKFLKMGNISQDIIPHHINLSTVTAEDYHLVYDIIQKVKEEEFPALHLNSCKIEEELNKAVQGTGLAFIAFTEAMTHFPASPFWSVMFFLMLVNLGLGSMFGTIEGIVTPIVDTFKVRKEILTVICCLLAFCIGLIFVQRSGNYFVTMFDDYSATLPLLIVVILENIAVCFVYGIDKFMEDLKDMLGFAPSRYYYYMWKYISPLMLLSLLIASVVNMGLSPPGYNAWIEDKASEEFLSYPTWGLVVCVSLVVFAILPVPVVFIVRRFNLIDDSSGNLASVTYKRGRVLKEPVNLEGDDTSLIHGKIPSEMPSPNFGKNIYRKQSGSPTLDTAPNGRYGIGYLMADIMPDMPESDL
- methodSummary: Inhibition of eGFP-tagged human B0AT2 expressed in HEK293 cells measured within 10 mins by [3H]proline uptake assay
- Assay type: cell-based
Answer each item with its documented IC50.
Answers are plain numbers, in µM.

Required: IC50, one value per compound below.
1. CCOC(=O)N1CCC(=C2c3ccc(Cl)cc3CCc3cc(O)cnc32)CC1
2. NCC(=O)N1CCC(=C2c3ccc(Cl)cc3CCc3cccnc32)CC1
3. C/C=C/C(=O)N1CCC(=C2c3ccc(Cl)cc3CCc3cccnc32)CC1
4. Clc1ccc2c(c1)CCc1cccnc1C2=C1CCNCC1

Response:
1: 17.6; 2: 22.9; 3: 5; 4: 172

Go through the items and report each one's IC50.
1. O=C(CC1CCCCC1)N1CCC(=C2c3ccc(Cl)cc3CCc3cccnc32)CC1
2. CCC(=O)N1CCC(=C2c3ccc(Cl)cc3CCc3cccnc32)CC1
3. CC(C)C[C@@H](N)C(=O)N1CCC(=C2c3ccc(Cl)cc3CCc3cccnc32)CC1

Response:
1. 5.7
2. 36
3. 7.7

Hey, can you go through the list below and give me IC50 for every item?
1. CCCC(=O)N1CCC(=C2c3ccc(Cl)cc3CCc3cccnc32)CC1
2. CCOC(=O)N1CCC(=C2c3ccc(Cl)cc3CCc3cccnc32)CC1
3. CC(C)CC(=O)N1CCC(=C2c3ccc(Cl)cc3CCc3cccnc32)CC1
4. CCSC(=O)N1CCC(=C2c3ccc(Cl)cc3CCc3cccnc32)CC1
5. CCCCC(=O)N1CCC(=C2c3ccc(Cl)cc3CCc3cccnc32)CC1

Response:
1. 4.9
2. 4
3. 10.8
4. 5.3
5. 3.4
